Target: dopaminergic receptors D2 (Homo sapiens, UniProt P14416)
Sequence (P14416 whole entry): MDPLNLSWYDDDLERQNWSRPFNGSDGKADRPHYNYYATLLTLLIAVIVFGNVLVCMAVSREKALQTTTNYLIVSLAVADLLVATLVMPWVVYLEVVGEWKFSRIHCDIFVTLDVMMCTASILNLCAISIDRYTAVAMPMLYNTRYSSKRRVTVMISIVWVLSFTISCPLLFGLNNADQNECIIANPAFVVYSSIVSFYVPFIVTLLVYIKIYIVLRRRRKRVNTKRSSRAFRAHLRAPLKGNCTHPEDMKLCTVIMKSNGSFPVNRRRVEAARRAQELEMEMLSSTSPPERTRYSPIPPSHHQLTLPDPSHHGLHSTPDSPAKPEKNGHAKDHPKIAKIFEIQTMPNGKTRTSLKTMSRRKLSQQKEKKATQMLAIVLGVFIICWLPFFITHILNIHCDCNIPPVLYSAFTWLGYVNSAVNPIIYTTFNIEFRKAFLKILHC
Assay: Radioligand binding assay, dopaminergic D2 receptors
Settings: binding assay, test compound 1×10^−6 M
inhibition at 1 µM vs 90%: at or above is 1, below is 0.

O=S(=O)(NC1CCN(CCCc2c[nH]c3ccc(F)cc23)C1)c1ccc2ccccc2c1 (stereo not shown) [Compound 80] | 1
Cc1cccc(S(=O)(=O)NC2CN(CCOc3cccc4[nH]ccc34)C2)c1 [Compound 48] | 0
O=S(=O)(NC1CCN(CCCc2noc3cc(F)ccc23)C1)c1cccc(O)c1 (stereo not shown) [Compound 18] | 0
CC(C)(C)c1ccc(S(=O)(=O)NCC2CN(CCOc3cccc4c3OCCO4)C2)cc1 [Compound 181] | 0
O=S(=O)(NCC1CN(CCOc2cccc3c2OCCO3)C1)c1cccs1 [Compound 184] | 0
Cc1cc(S(=O)(=O)NCC2CCN(CCOc3cccc4c3OCCO4)C2)c(C)s1 (stereo not shown) [Compound 312] | 0

[in] Determine whether measured inhibition at 1 µM meets or exceeds 90% for Cn1ccc2c(S(=O)(=O)NCC3CCN(CCOc4cccc5ccccc45)C3)cccc21 (stereo not shown) [Compound 275]
[out] 0

[in] Determine whether measured inhibition at 1 µM meets or exceeds 90% for O=S(=O)(NC1CCN(CCCc2noc3cc(F)ccc23)C1)c1cc2ccccc2s1 (stereo not shown) [Compound 25]
[out] 1

[in] State whether the measured inhibition at 1 µM reaches 90%, counting equality as reaching it, for Cc1cccc(S(=O)(=O)NC2CCN(CCCc3c[nH]c4ccc(Cl)cc34)C2)c1 (stereo not shown) [Compound 86]
[out] 1

[in] Decide: inhibition at 1 µM of O=S(=O)(N[C@H]1CCN(CCCc2noc3cc(F)ccc23)C1)c1csc2ccccc12 [Compound 225] >= 90%?
[out] 1

[in] Check this compound for inhibition at 1 µM at or above 90%: O=S(=O)(NC1CCN(CCCc2noc3cc(F)ccc23)C1)c1cccc2ccccc12 (stereo not shown) [Compound 20]
[out] 1

[in] Decide: is the reported value of inhibition at 1 µM for O=S(=O)(NCC1CCN(CCCc2noc3cc(F)ccc23)C1)c1ccc(Cl)c(Cl)c1 (stereo not shown) [Compound 253] equal to or greater than 90%?
[out] 0

====

Molecular target: 5-HT2C receptor (Homo sapiens)
Construct: expressed in transfected cells; host or cells: HEK-293 cells
Sequence (P28335 33-458): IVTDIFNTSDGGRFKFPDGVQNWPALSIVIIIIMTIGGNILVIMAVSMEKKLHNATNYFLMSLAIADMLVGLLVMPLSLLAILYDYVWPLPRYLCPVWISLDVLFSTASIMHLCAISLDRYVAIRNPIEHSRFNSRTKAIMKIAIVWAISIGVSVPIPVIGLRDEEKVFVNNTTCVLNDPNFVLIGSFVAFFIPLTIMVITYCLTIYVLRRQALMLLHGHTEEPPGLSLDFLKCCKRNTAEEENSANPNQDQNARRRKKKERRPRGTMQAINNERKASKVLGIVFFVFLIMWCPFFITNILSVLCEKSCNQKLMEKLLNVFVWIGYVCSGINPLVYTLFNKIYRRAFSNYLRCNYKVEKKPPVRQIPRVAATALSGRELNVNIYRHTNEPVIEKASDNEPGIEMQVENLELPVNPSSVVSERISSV
Test: Radioligand binding assay, serotoninergic 5-HT2C receptors
Conditions: test compound 1×10^−6 M
quantity name: inhibition at 1 µM (%)
I only need the number, in %, no unit after it.

O=S(=O)(N[C@H]1CCN(CCCc2noc3cc(F)ccc23)C1)c1csc2ccccc12 [Compound 225] | 72

[in] Look up inhibition at 1 µM with 5-HT2C receptor (Homo sapiens) for this compound: O=S(=O)(N[C@H]1CCN(CCCc2noc3cc(F)ccc23)C1)c1ccc2cc(Cl)ccc2c1 [Compound 201]
[out] 72

[in] Reported inhibition at 1 µM for 5-HT2C receptor (Homo sapiens), given O=S(=O)(NCC1CCN(CCCc2noc3cc(F)ccc23)C1)c1ccc(-c2ccccc2)cc1 (stereo not drawn) [Compound 241] ?
[out] 66

[in] Recorded inhibition at 1 µM for COc1ccc2cc(S(=O)(=O)N[C@H]3CCN(CCCc4noc5cc(F)ccc45)C3)ccc2c1 [Compound 231] with 5-HT2C receptor (Homo sapiens), please?
[out] 75

[in] Param readout = inhibition at 1 µM; param system = 5-HT2C receptor (Homo sapiens); param query = O=S(=O)(NCC1CN(CCOc2cccc3c2OCCO3)C1)c1ccc(Cl)c(Cl)c1 [Compound 183] ; response: value
[out] 98

[in] Item: Cc1c(S(=O)(=O)NC2CCN(CCCc3noc4cc(F)ccc34)C2)sc2ccc(F)cc12 (stereo not drawn) [Compound 28] Test system: 5-HT2C receptor (Homo sapiens) Read-out: inhibition at 1 µM Value: ?
[out] 72

[in] I'm curious: which inhibition at 1 µM was measured for O=S(=O)(NCC1CN(CCOc2cccc3ccccc23)C1)c1ccc2ccccc2c1 [Compound 122] tested on 5-HT2C receptor (Homo sapiens)?
[out] 98

[in] Hello, I am looking for reported inhibition at 1 µM with 5-HT2C receptor (Homo sapiens) for O=S(=O)(NC1CCN(CCCc2noc3cc(F)ccc23)C1)c1ccc(Cl)c(F)c1 (stereo not drawn) [Compound 11] . Could you help?
[out] 27

[in] Recall the recorded inhibition at 1 µM for O=S(=O)(NC1CCN(CCCc2noc3cc(F)ccc23)C1)c1cccc2ccccc12 (stereo not drawn) [Compound 20] with 5-HT2C receptor (Homo sapiens) and state it.
[out] 33

====

Molecular target: α2C adrenergic receptors (Homo sapiens, UniProt P18825)
Construct: expressed in transfected cells; host or cells: CHO cells
Sequence (P18825 whole entry): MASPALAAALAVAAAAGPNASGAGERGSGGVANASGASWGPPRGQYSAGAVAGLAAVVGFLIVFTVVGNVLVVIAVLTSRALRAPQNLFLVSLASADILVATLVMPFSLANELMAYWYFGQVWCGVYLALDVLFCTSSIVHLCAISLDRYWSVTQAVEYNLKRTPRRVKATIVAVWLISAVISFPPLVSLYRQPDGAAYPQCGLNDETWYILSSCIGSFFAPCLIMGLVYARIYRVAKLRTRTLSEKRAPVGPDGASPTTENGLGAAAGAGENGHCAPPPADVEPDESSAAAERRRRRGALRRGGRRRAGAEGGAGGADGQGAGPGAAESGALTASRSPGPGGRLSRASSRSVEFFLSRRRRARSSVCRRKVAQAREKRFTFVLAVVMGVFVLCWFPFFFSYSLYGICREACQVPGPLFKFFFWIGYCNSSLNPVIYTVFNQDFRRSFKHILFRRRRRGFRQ
Assay: Radioligand binding assay, adrenergic α2C receptors
Conditions: test compound 1×10^−6 M
quantity name: inhibition at 1 µM (%)
Report the figure in % without appending any unit label.

Cc1cccc(S(=O)(=O)NC2CCN(CCCc3c[nH]c4ccc(Cl)cc34)C2)c1 (centres unmarked) [Compound 86] | 106
O=S(=O)(NCC1CN(CCOc2cccc3c2OCCO3)C1)c1ccc(Cl)c(Cl)c1 [Compound 183] | 99
O=S(=O)(NCC1CN(CCOc2cccc3ccccc23)C1)c1ccc2ccccc2c1 [Compound 122] | 101
O=S(=O)(NCC1CCN(CCOc2cccc3ccccc23)C1)c1ccc2ccccc2c1 (centres unmarked) [Compound 124] | 95

[in] State the recorded inhibition at 1 µM for this entry: O=S(=O)(N[C@@H]1CCN(CCCc2noc3cc(F)ccc23)C1)c1ccc2ccccc2c1 [Compound 206]
[out] 93

[in] Please give the measured inhibition at 1 µM for this molecule: O=S(=O)(NCC1CN(CCCc2noc3cc(F)ccc23)C1)c1ccc(-c2ccccc2)cc1 [Compound 135]
[out] 95

[in] So what does the record say about inhibition at 1 µM for O=S(=O)(NC1CCN(CCCc2noc3cc(F)ccc23)CC1)c1cccc2ccccc12 [Compound 34] ?
[out] 94

[in] Look at this molecule and give its reported inhibition at 1 µM. Cc1c(S(=O)(=O)N[C@@H]2CCN(CCCc3noc4cc(F)ccc34)C2)sc2ccc(F)cc12 [Compound 202]
[out] 95

[in] # input molecule: O=S(=O)(NCC1CCN(CCCc2noc3cc(F)ccc23)C1)c1ccc2cc(Cl)ccc2c1 (centres unmarked) [Compound 237] ; wanted: its inhibition at 1 µM
[out] 82

[in] Bench note: what inhibition at 1 µM did O=S(=O)(NCC1CCN(CCOc2cccc3c2OCCO3)C1)c1cccc(O)c1 (centres unmarked) [Compound 303] show?
[out] 100

[in] Report inhibition at 1 µM for O=S(=O)(NCC1CCN(CCOc2cccc3c2OCCO3)C1)c1ccc(F)c(Cl)c1 (centres unmarked) [Compound 317] please.
[out] 95

[in] Recorded inhibition at 1 µM for O=S(=O)(NCC1CN(CCCc2noc3cc(F)ccc23)C1)c1ccc2scnc2c1 [Compound 132] , please?
[out] 73

[in] # inhibition at 1 µM lookup, item O=S(=O)(NC1CN(CCOc2cccc3[nH]ccc23)C1)c1cccc2ccccc12 [Compound 49]
[out] 110

[in] What value of measured inhibition at 1 µM is listed for COc1cccc(S(=O)(=O)NCC2CN(CCCc3noc4cc(F)ccc34)C2)c1 [Compound 143] ?
[out] 78

====

Molecular target: 5-HT7 receptor (Homo sapiens)
Construct: purchased PerkinElmer
Sequence (P34969 whole entry): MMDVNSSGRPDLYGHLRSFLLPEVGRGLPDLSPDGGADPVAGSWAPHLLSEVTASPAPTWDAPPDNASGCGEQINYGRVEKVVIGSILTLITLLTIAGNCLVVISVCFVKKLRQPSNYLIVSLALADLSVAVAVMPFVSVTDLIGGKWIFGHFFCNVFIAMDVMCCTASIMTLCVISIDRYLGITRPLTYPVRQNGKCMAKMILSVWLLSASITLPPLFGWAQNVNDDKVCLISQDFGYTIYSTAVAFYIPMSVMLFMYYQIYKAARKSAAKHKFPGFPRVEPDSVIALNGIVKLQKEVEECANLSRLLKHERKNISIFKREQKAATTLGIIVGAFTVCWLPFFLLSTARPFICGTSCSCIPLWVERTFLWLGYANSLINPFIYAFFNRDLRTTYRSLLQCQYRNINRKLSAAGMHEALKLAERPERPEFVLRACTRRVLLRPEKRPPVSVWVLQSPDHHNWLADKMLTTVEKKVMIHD
Experiment: Radioligand binding assay, serotoninergic 5-HT7 receptors
Conditions: binding assay result in %, Table 5a
Tick fulfilled if inhibition at 1 µM is 90% or greater. Tick not fulfilled if inhibition at 1 µM is less than 90%.

O=S(=O)(NC1CCN(CCCc2noc3cc(F)ccc23)C1)c1ccc(Cl)cc1 (centres unmarked) [Compound 208] | fulfilled

[in] Is inhibition at 1 µM at least 90%? Consider O=S(=O)(NCC1CCN(CCOc2cccc3c2OCCO3)C1)c1ccc(Cl)cc1 (centres unmarked) [Compound 289]
[out] not fulfilled

[in] Dear colleague, could you confirm whether O=S(=O)(N[C@@H]1CCN(CCCc2noc3cc(F)ccc23)C1)c1ccc2ccccc2c1 [Compound 206] has inhibition at 1 µM at or above 90%?
[out] fulfilled

[in] Is inhibition at 1 µM for Cn1ccc2c(S(=O)(=O)NC3CCN(CCCc4noc5cc(F)ccc45)C3)cccc21 (centres unmarked) [Compound 219] at or above 90%?
[out] fulfilled

[in] Threshold query (inhibition at 1 µM >= 90%) on O=S(=O)(N[C@H]1CCN(CCCc2noc3cc(F)ccc23)C1)c1ccc2ccccc2c1 [Compound 207]
[out] fulfilled

[in] Does the reported inhibition at 1 µM for Cc1c(S(=O)(=O)NC2CCN(CCCc3noc4cc(F)ccc34)C2)sc2ccc(Cl)cc12 (centres unmarked) [Compound 29] fall at or above the 90% mark?
[out] not fulfilled

[in] Has COc1cccc(S(=O)(=O)NC2CCN(CCCc3noc4cc(F)ccc34)C2)c1 (centres unmarked) [Compound 17] a recorded inhibition at 1 µM greater than or equal to 90%?
[out] not fulfilled
